- TEST_TARGET: CgImd1 (IMP dehydrogenase, CgIMPDH, VGIV) (Cryptococcus bacillisporus, UniProt E3P6S3)
- Construct: recombinant CgImd1 expressed in E. coli
- Sequence (E3P6S3 entry or part of it): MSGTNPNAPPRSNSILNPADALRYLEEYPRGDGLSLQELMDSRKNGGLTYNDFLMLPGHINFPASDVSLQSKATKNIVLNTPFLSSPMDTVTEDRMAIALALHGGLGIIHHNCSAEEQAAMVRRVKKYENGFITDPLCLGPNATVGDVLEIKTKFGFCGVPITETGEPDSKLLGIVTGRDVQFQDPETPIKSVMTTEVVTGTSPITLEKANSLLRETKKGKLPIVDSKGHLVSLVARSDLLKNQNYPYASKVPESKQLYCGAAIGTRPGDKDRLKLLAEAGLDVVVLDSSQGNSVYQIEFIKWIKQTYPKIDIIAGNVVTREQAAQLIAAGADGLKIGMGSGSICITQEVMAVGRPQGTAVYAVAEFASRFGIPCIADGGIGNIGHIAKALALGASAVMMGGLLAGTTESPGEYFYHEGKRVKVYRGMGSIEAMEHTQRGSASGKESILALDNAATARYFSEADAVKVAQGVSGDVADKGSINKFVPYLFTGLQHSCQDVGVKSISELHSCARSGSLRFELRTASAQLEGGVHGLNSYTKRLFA
- EXPERIMENTAL_PROTOCOL: NADH production at […] nm, tight-binding inhibition fits
VALUE_TYPE: pKi
A value of pKi is the negative decimal logarithm of a concentration given in moles per litre.

Incoming: I'd like to know its pKi. The compound in question is COc1c(C)c2c(c(O)c1C/C=C(\C)CCC(=O)O)C(=O)OC2 [MPA, mycophenolic acid]
Outgoing: 7.02
